Reported values of inhibition for individual entries
System under test: UniProt P18031
Test description: Inhibitory activity against human protein tyrosine phosphatase 1B (PTP1B) at a concentration of 10 uM
Give just the numeric value; % need not be written.

Example cases with answers are listed next.
CCCCCNC(=O)[C@H](Cc1ccc(OC(C(=O)O)C(=O)O)cc1)NC(=O)[C@H](Cc1ccccc1)NC(=O)CCN(CC)CC    54
CCCCCNC(=O)[C@H](Cc1ccc(OC(C(=O)O)C(=O)O)cc1)NC(=O)[C@H](CCSC)NC(=O)OC(C)(C)C    25
CCCCCNC(=O)[C@H](Cc1ccc(OC(C(=O)O)C(=O)O)cc1)NC(=O)[C@H](Cc1ccc(O)cc1)NC(=O)OC(C)(C)C    50

# ---- query compound ----
stdin: Report value: inhibition, system: UniProt P18031, compound: CCCCCNC(=O)[C@H](Cc1ccc(OCC(=O)O)c(C(=O)O)c1)NC(=O)[C@H](COCOC)NC(=O)OC(C)(C)C
stdout: 51

----------
Reported values of inhibition for individual entries
System under test: Tyrosine-protein phosphatase non-receptor type 1 (Homo sapiens) (UniProt P18031)
Sequence (whole entry): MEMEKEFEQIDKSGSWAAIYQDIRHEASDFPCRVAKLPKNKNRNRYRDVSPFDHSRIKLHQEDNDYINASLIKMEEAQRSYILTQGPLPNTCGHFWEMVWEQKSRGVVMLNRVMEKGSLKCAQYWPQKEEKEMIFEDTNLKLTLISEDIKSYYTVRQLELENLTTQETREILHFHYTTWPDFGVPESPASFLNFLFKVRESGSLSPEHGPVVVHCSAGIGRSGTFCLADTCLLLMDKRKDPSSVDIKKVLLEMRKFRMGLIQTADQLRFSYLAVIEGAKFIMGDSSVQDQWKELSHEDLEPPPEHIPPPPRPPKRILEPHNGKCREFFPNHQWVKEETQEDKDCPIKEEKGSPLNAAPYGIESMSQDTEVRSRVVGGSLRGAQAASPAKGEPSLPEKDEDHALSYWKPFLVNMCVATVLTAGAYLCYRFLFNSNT
Test description: Inhibitory activity against human protein tyrosine phosphatase 1B (PTP1B) at a concentration of 1 uM
Give just the numeric value; % need not be written.

Example cases with answers are listed next.
CCCCCNC(=O)[C@H](Cc1ccc(OCC(=O)O)c(C(=O)O)c1)NC(=O)[C@H](Cc1ccccc1)NC(=O)CCNS(C)(=O)=O    15
CCCCCNC(=O)[C@H](Cc1ccc(OCC(=O)O)c(C(=O)O)c1)NC(=O)[C@H](Cc1ccccc1)NC(=O)CCCc1ccccc1    19
CCCCCNC(=O)[C@H](Cc1ccc(OC(C(=O)O)C(=O)O)cc1)NC(=O)[C@H](CCSC)NC(=O)OC(C)(C)C    5
CCCCCNC(=O)[C@H](Cc1ccc(OC(C(=O)O)C(=O)O)cc1)NC(=O)[C@H](Cc1ccc(O)cc1)NC(=O)OC(C)(C)C    10

stdin: Look up inhibition of CCCCCNC(=O)[C@H](Cc1ccc(OC(C(=O)O)C(=O)O)cc1)NC(=O)[C@H](Cc1ccccc1)NS(C)(=O)=O and report it.
stdout: 9

stdin: Look up inhibition of CCCCCNC(=O)[C@H](Cc1ccc(OCC(=O)O)c(C(=O)O)c1)NC(=O)[C@H](Cc1ccccc1)NC(=O)CCOC and report it.
stdout: 37
